study_system: FGFR3 (Homo sapiens, UniProt P22607)
Sequence (P22607 23-806): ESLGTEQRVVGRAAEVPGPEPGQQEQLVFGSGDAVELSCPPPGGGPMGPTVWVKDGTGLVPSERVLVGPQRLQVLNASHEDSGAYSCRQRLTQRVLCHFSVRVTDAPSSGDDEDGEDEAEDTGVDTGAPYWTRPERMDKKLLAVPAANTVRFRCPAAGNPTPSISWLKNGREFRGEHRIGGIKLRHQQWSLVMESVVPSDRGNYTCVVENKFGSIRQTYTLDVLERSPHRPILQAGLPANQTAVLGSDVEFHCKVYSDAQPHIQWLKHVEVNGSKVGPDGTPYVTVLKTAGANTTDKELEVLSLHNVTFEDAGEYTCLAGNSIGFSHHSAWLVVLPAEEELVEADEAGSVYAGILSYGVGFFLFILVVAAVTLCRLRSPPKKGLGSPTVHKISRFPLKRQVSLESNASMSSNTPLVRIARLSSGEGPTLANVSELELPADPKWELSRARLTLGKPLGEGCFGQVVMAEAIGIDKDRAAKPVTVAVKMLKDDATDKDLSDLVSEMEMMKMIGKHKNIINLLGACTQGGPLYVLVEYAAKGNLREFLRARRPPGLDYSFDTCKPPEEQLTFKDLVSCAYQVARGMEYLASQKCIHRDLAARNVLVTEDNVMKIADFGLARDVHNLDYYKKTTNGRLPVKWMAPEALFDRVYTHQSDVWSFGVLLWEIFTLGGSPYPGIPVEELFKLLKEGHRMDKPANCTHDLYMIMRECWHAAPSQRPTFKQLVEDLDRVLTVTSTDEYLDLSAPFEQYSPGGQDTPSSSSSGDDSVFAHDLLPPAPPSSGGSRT
test_method_notes: Affinity and Koff to FGFR3 measured by BIAcore
Format: binding
A collection of molecules and their measured Kd

- molecule: "PRO-012: HuCAL anti-FGFR3 clone; VH-CDR3 SEQ ID NO:3, VL-CDR3 SEQ ID NO:12 (antibody, V domains shown) VH: QVQLKESGPALVKPTQTLTLTCTFSGFSLSTSGVGVGWIRQPPGKALEWLALIDWDDDKYYSTSLKTRLTISKDTSKNQVVLTMTNMDPVDTATYYCARYHSWYEMGYYGSTVGYMFDYWGQGTLVTVSS VL: DIELTQPPSVSVAPGQTARISCSGDALGDKYASWYQQKPGQAPVLVIYDDSDRPSGIPERFSGSNSGNTATLTISGTQAEDEADYYCQSYDFDFAVFGGGTKLTVLGQ"
  Kd (nM): 14
- molecule: "PRO-029: HuCAL anti-FGFR3 clone; VH-CDR3 SEQ ID NO:7, VL-CDR3 SEQ ID NO:16 (antibody, V domains shown) VH: QVQLVQSGAEVKKPGASVKVSCKASGYTFTSYYMHWVRQAPGQGLEWMGWINPNSGGTNYAQKFQGRVTMTRDTSISTAYMELSSLRSEDTAVYYCARTWQYSYFYYLDGGYYFDIWGQGTLVTVSS VL: DIVLTQSPATLSLSPGERATLSCRASQSVSSSYLAWYQQKPGQAPRLLIYGASSRATGVPARFSGSGSGTDFTLTISSLEPEDFATYYCQQTNNAPVTFGQGTKVEIKRT"
  Kd (nM): 6

Where these numbers come from: patent US20090175866A1
